From: paper PMC12461339

target: yeast urease activity (Cryptococcus neoformans); construct: endogenous in cells; host or cells: Cryptococcus neoformans H99 (ATCC 208821) yeasts in Christensen urea broth; assay: Inhibition of yeast urease activity in urea (Christensen) medium, colour change (MICure); type: cell-based; conditions: Table S1; urea medium; 100% inhibition of yeast urease activity
Sequence (O13465 whole entry): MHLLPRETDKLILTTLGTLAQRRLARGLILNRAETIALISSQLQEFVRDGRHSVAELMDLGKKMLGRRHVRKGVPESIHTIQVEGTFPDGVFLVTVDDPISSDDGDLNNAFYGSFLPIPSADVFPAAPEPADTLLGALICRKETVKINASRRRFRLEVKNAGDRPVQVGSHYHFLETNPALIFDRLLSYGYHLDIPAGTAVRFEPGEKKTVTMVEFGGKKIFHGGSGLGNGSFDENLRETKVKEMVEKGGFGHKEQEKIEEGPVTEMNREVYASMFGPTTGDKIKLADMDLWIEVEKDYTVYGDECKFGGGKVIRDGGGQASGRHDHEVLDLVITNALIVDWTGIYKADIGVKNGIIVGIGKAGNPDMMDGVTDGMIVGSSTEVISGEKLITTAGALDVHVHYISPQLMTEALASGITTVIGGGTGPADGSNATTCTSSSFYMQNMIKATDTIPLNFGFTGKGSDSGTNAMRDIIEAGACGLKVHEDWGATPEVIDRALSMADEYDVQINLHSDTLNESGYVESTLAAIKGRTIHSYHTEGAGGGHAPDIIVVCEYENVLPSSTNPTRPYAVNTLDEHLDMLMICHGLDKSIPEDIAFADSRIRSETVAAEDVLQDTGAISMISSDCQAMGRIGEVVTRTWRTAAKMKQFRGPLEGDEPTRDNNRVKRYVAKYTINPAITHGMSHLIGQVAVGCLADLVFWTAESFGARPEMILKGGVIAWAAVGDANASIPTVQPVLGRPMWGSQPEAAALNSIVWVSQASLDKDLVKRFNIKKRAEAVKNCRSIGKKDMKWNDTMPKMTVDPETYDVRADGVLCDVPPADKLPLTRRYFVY
# MICURE annotations

Sample records with MICURE:
{"SMILES DATA": "O=C(NC(=S)Nc1ccccc1)c1ccccc1", "MICURE": "32 mg/L"}
{"SMILES DATA": "CC(C)(C)c1ccc(NC(=[Se])NC(=O)c2ccccc2)cc1", "MICURE": "16 mg/L"}
{"SMILES DATA": "O=C(NC(=[Se])Nc1ccc(Br)cc1)c1ccccc1", "MICURE": "0.5 mg/L"}
{"SMILES DATA": "COc1ccccc1NC(=[Se])NC(=O)c1ccccc1", "MICURE": "0.25 mg/L"}
{"SMILES DATA": "COc1cccc(NC(=S)NC(=O)c2ccccc2)c1", "MICURE": "≤ 0.25 mg/L"}
{"SMILES DATA": "O=C(NC(=[Se])Nc1cccc(Br)c1)c1ccccc1", "MICURE": "0.12 mg/L"}
{"SMILES DATA": "O=C(NC(=S)Nc1ccc(Br)cc1)c1ccccc1", "MICURE": "32 mg/L"}

Here's the next entry for you.
Request: Fill in MICURE for O=C(NC(=S)Nc1ccc(Cl)cc1)c1ccccc1 tested with yeast urease activity (Cryptococcus neoformans).
Result: ≤ 0.25 mg/L
